Provide the reported Papp of each item.
- experiment-summary: passive permeability, PAMPA, ADME assay (AID 1508612)
- measurement-context: pH 7.4, 30.0 min, 50.0 µM
Express it in ×10⁻⁶ cm/s; write the number only.

What does the record list as Papp for COC(=O)C1=COC(C)C2CN3CCc4c([nH]c5cc(OC)c(OC)cc45)C3CC12 (stereo not given) ? 366

What does the record list as Papp for `O=C1CCCc2cc(S(=O)(=O)Nc3cnccc3C(=O)Nc3nc(-c4ccccc4)cs3)ccc2N1` ? 1.7

What does the record list as Papp for `O=C(C1CCN(c2nc(-c3ccc(Br)cc3)cs2)CC1)N1CCOCC1` ? 236

What does the record list as Papp for `Cc1cc(-c2nnc3n2CCCCC3)c(C)n1-c1cccc(C#N)c1` ? 229

What does the record list as Papp for `Clc1ccc2ncc(-c3cccc(NC4CNC4)n3)n2c1` ? 182

What does the record list as Papp for `c1ccc2c(Nc3ccn[nH]3)nc(-c3ccncc3)nc2c1` ? 880

What does the record list as Papp for `CCC(CC)c1cc([C@H]2CN3CC[C@H]2C[C@@H]3CNC(=O)COc2ccccc2)nc(-c2ccncc2)n1` ? 790

What does the record list as Papp for `COc1ccc(OC)c(-n2c3c(cc(-c4nc(-c5ccc(Cl)cc5)cs4)c2=O)C(=O)CC(C)(C)C3)c1` ? 216
